Recorded values, source PubChem BioAssay AID1159580.

- assay.name: chemical genetic growth profiling, strain panel (AID 1159580);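 also: tested at 20 µM; growth read once vehicle control cultures reached saturation at 30 °C; 1 = growth at the plate median or of vehicle wells; lower values mean less growth of the strain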
- run.conditions: S. cerevisiae deletion strains, growth OD, locus YLR268W, strain sec22, active compounds read low
The campaign covered roughly 5,500 compounds. About 2,000 (36%) were called active. Another 18% or so got no clear call; they are omitted. The list shows a part of the results.
Would you kindly list normalized growth for each of these molecules?
// return just the number, without any unit appended

// query Fill blank: measured normalized growth of the molecule `O=C(O)c1cc2ccccc2[nH]1` is ____.
// result 1.01

// query Which normalized growth reading was recorded for the molecule `C=C(C)[C@@H]1[C@H]2OC(=O)[C@@H]1[C@]1(O)C[C@H]3O[C@]34C(=O)O[C@H]2[C@]14C` ?
// result 1.07

// query So what's the measured normalized growth for this one? `COc1ccc2c3c1O[C@H]1C[C@@H](O)C=C[C@@]31CCN(C)C2`
// result 0.993

// query Name the reported normalized growth value associated with the molecule `NC(=O)c1ccc[n+]([C@@H]2O[C@H](COP(=O)([O-])OP(=O)(O)OC[C@H]3O[C@@H](n4cnc5c(N)ncnc54)[C@H](O)[C@@H]3O)[C@@H](O)[C@H]2O)c1`
// result 1.08

// query Requested field: normalized growth. Item: C[C@H]1CC2C([C@@H](O)C[C@@]3(C)C2CC[C@]3(O)C(=O)CO)[C@@]2(C)C=CC(=O)C=C12 (stereo not given in full)
// result 1.07

// query Given the entry `CN(C)C(=S)SSC(=S)N(C)C` , report its measured normalized growth.
// result 0.0648

// query Name the recorded normalized growth for `CNCCc1ccccn1` .
// result 1.04

// query Suppose we examine the molecule `O=C(O)c1c2ccccc2cc2ccccc12` ; what normalized growth value has been reported?
// result 0.986

// query So what's the measured normalized growth for this one? `CCCCNc1cc(C(=O)O)cc(S(N)(=O)=O)c1Oc1ccccc1`
// result 0.965

// query Which normalized growth is reported for this molecule? `CN(C)CC/C=C1\c2ccccc2Sc2ccc(Cl)cc21`
// result 1.01

// query Dear colleague, I am looking for the recorded normalized growth of the following molecule: `CCOC(=O)C(C)(C)Oc1ccc(Cl)cc1`
// result 1

// query Bench note: what normalized growth did `CN1CCC(=C2c3ccccc3CC(=O)c3sccc32)CC1` show?
// result 1.03

// query Look at this molecule and give its reported normalized growth. ClC1=C(Cl)C2(Cl)C3C4C=CC(C4)C3C1(Cl)C2(Cl)Cl (stereo not given)
// result 0.98

// query Which normalized growth reading was recorded for the molecule COc1cc2c(cc1OC)C1C(=O)c3c(O)cc4c(c3OC1CO2)C=CC(C)(C)O4 (stereo not given) ?
// result 1.01

// query For `CC(C)OC(=O)C(C)(C)Oc1ccc(C(=O)c2ccc(Cl)cc2)cc1` , what is its reported normalized growth?
// result 0.971

// query For the molecule shown here, `CS(=O)(=O)c1ccc(C2=C(c3ccccc3)C(=O)OC2)cc1` , give the reported normalized growth.
// result 0.971

// query Field request: normalized growth | item: CC(N)C(=O)OC(C)(C)Cc1ccc(Cl)cc1 (stereo not given)
// result 1.07

// query What value of normalized growth has been reported for the following molecule? CO[C@H]1[C@H](O)[C@H](O[C@H]2CC[C@]3(C)C4CC[C@]5(C)C(C6=CC(=O)OC6)CC[C@]5(O)C4CC[C@@H]3C2)O[C@@H](C)[C@@H]1O (stereo not given in full)
// result 1.02

// query Name the recorded normalized growth for C=Cc1c2[nH]c(c1C)C=c1[nH]c(c(C)c1C=C)=CC1N=C(C=c3[nH]c(c(C)c3CCC(=O)O)=C2)C(CCC(=O)O)=C1C (stereo not given) .
// result 1.06

// query # query: normalized growth of entry `CC(C)(O)[C@@H]1[C@H]2OC(=O)[C@@H]1[C@]1(O)C[C@H]3O[C@]34C(=O)O[C@H]2[C@]14C`
// result 1.02
